Numbers sourced from ChEMBL document CHEMBL3826935.

experiment: AUC(0 to 8 hrs) in rat at 1 mg/kg, po; assay type: ADME, organism-based; parameters: time < 6 hr, dose 1 mg/kg, route oral; conditions: in vivo
PARAMETER: AUC(0-t) at 6 h (ng·h/mL)
One number for each entry, in ng·h/mL.

# input # lookup: AUC(0-t) at 6 h of C[C@]1(c2ccc(OC(F)(F)F)cc2)C[C@](O)(c2ccccn2)CO1 (single isomer, unassigned)
# output 930

* * *

Would you kindly list log10(CL free) for each of these compounds?
system: Liver microsome; experiment: Unbound intrinsic clearance in human liver microsomes after 5 hrs by LC-MS/MS analysis; format: ADME
Remember, log10 of CL free, in mL/min/kg.

Some solved cases for reference:
• C[C@]1(O)C[C@@](c2cc(C(F)(F)F)ccn2)([C@H](O)c2ccccn2)C1 = 1.52
• O[C@H](c1ccccn1)C1(c2ccc(Cl)c(Cl)c2)CC(F)(F)C1 = 2.40
• OC(c1ccccn1)C1(c2ccc(C(F)(F)F)cc2)CNC1 (stereo not given) = 1.52
• C[C@@]1(c2ccc(OC(F)(F)F)cc2)C[C@@](O)(c2ccccn2)CO1 (single isomer, unassigned) = 1.83
• O[C@@]1(c2ccccn2)CC[C@@H](c2ccc(C(F)(F)F)cc2)C1 = 2.18

Return reported log10(CL free) values for all items listed beneath this line.
1. OC(c1ccccn1)C1(c2ccc(Cl)c(Cl)c2)CCOC1 (stereo not given)
2. C[C@]1(O)C[C@@](c2cccc(OC(F)(F)F)c2)([C@H](O)c2ccccn2)C1
3. O[C@H](c1ccccn1)[C@]1(c2ccnc(C(F)(F)F)c2)C[C@@H](O)C1
4. O[C@H](c1ccccn1)[C@]1(c2cccc(C(F)(F)F)c2)C[C@H](O)C1

# output
2.62
2.22
1.92
2.11

Return reported log10(CL free) values for all items listed beneath this line.
1. C[C@]1(O)C[C@@](c2cccc(C(F)(F)F)c2)([C@H](O)c2ccccn2)C1
2. OC(c1ncccn1)C1(c2ccc(OC(F)(F)F)cc2)CCC1 (racemic)
3. O[C@H](c1ccccn1)[C@]1(c2ccc(C(F)(F)F)cc2)C[C@@H](O)C1
4. O[C@H](c1ccccn1)[C@]1(c2cc(C(F)(F)F)ccn2)C[C@@H](O)C1
5. O[C@H](c1ccccn1)C1(c2ccc(OC(F)(F)F)cc2)CC(F)(F)C1
6. C[C@]1(O)C[C@](c2cccc(OC(F)(F)F)c2)([C@H](O)c2ccccn2)C1
7. CN1CC(c2ccc(C(F)(F)F)cc2)(C(O)c2ccccn2)C1 (stereo not given)
8. O[C@H](c1ncccn1)C1(c2ccc(Cl)c(Cl)c2)CCC1

# output
[2.18, 2.00, 1.52, 1.52, 2.26, 2.08, 1.70, 2.43]

* * *

Would you kindly list clearance for each of these compounds?
test: […] plasma clearance in rat at 1 mg/kg, iv; format: ADME, organism-based; details: read-out: CL free (converted)
One number for each entry, in mL/min/kg.

* C[C@]1(O)C[C@](c2cc(C(F)(F)F)ccn2)([C@H](O)c2ccccn2)C1 (mixture of isomers) | 41.7

Next:
# input # lookup: clearance of C[C@]1(c2ccc(OC(F)(F)F)cc2)C[C@](O)(c2ccccn2)CO1 (single isomer, unassigned)
# output 293

* * *

molecular target: Transient receptor potential cation channel subfamily V member 3 (Homo sapiens) (UniProt Q8NET8); assay: Antagonist activity at human TRPV3 expressed in recombinant HEK293 cells assessed as inhibition of 2-APB induced calcium flux by FLIPR analysis; type: cell-based
Sequence (Q8NET8 whole entry): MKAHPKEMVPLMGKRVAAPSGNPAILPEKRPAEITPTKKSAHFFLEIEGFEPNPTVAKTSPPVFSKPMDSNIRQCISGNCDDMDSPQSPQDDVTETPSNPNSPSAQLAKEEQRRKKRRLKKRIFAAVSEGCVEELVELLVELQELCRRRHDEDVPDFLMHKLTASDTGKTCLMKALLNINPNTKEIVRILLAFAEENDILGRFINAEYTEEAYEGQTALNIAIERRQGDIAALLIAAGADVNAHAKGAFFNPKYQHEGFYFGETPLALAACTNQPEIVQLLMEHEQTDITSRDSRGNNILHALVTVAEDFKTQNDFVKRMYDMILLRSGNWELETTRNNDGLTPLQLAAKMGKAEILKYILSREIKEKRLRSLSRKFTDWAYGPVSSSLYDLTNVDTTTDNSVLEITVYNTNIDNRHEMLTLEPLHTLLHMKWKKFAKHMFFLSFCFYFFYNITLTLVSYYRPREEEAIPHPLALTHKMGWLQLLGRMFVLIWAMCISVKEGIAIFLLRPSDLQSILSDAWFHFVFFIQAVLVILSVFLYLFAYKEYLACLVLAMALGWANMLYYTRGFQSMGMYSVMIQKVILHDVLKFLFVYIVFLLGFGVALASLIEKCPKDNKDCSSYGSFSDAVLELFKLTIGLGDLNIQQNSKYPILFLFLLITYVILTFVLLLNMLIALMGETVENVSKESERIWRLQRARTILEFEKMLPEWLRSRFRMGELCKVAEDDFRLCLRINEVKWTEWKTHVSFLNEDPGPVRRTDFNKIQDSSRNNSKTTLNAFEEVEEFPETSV
PARAMETER: log10 of Kb (log10 of the value in nM)
Remember, log10 of Kb, in nM.

Some solved cases for reference:
• O[C@]1(c2ccccn2)CC[C@@H](c2ccc(C(F)(F)F)cc2)C1 = 2.11
• OC(c1ccccn1)C1(c2ccccc2OC(F)(F)F)CCC1 (racemic) = 2.74
• OC(c1ncccc1F)C1(c2ccc(Cl)c(Cl)c2)CCC1 (racemic) = 2.79
• O[C@H](c1ccccn1)[C@]1(c2cccc(C(F)(F)F)c2)C[C@@H](O)C1 = 2.32
• OC(c1ncccn1)C1(c2ccc(OC(F)(F)F)cc2)CCC1 (racemic) = 3.19

Next:
# input # lookup: log10 of Kb of C[C@]1(O)C[C@](c2cc(C(F)(F)F)ccn2)([C@H](O)c2ccccn2)C1 (mixture of isomers)
# output 2.75

* * *

tested on: Liver microsome; assay: Unbound intrinsic clearance in human liver microsomes after 5 hrs by LC-MS/MS analysis; type: ADME
Would you kindly list CL free for each of these compounds?
The reply must contain the numeric value and, after it, the unit.

Return reported CL free values for all items listed beneath this line.
1. O[C@H](c1ccccn1)[C@]1(c2ccc(C(F)(F)F)cc2)C[C@H](O)C1
2. O[C@H](c1ccccn1)[C@]1(c2cccc(OC(F)(F)F)c2)C[C@@H](O)C1
3. OC(c1ccccn1)C1(c2ccc(Cl)c(Cl)c2)COC1 (stereo unspecified)

# output
50 mL/min/kg
120 mL/min/kg
130 mL/min/kg

Return reported CL free values for all items listed beneath this line.
1. O[C@]1(c2ccccn2)CC[C@@H](c2ccc(C(F)(F)F)cc2)C1
2. O[C@H](c1ccccn1)[C@]1(c2cc(C(F)(F)F)ccn2)C[C@H](O)C1

# output
["383 mL/min/kg", "33 mL/min/kg"]

Return reported CL free values for all items listed beneath this line.
1. C[C@]1(O)C[C@@](c2ccc(C(F)(F)F)cc2)([C@H](O)c2ccccn2)C1
2. C[C@]1(O)C[C@](c2cccc(C(F)(F)F)c2)([C@H](O)c2ccccn2)C1

# output
1: 50 mL/min/kg; 2: 33 mL/min/kg

* * *

target: Transient receptor potential cation channel subfamily V member 3 (Homo sapiens, UniProt Q8NET8); experiment: Antagonist activity at human TRPV3 expressed in recombinant HEK293 cells assessed as inhibition of 2-APB induced currents by patch-clamp electrophysiological assay; format: cell-based
Sequence (Q8NET8 whole entry): as above
PARAMETER: IC50 (nM)
Numbers only, in nM.

# input # lookup: IC50 of C[C@]1(O)C[C@](c2cc(C(F)(F)F)ccn2)([C@H](O)c2ccccn2)C1 (mixture of isomers)
# output 380

* * *

test: Cmax in rat at 1 mg/kg, iv or 2 mg/kg, po; type: ADME, organism-based; conditions: in vivo
PARAMETER: Cmax (ng/mL)
One number for each entry, in ng/mL.

# input # lookup: Cmax of C[C@]1(O)C[C@](c2cc(C(F)(F)F)ccn2)([C@H](O)c2ccccn2)C1 (mixture of isomers)
# output 190

* * *

target: Transient receptor potential cation channel subfamily V member 3 (Homo sapiens); assay: Antagonist activity at human TRPV3 expressed in recombinant HEK293 cells assessed as inhibition of 2-APB induced calcium flux by FLIPR analysis; type: cell-based
Would you kindly list pIC50 for each of these compounds?
Answers are plain numbers, as −log10 of the molar value.

* C[C@]1(O)C[C@](c2cc(C(F)(F)F)ccn2)([C@H](O)c2ccccn2)C1 (mixture of isomers) | 6.03

# input # lookup: pIC50 of O[C@H](c1ccccn1)C1(c2ccc(Cl)c(Cl)c2)CCC1
# output 6.80

* * *

experiment: Oral bioavailability in rat at 2 mg/kg; format: ADME, organism-based; settings: in vivo
PARAMETER: bioavailability (%)
Numbers only, in %.

# input # lookup: bioavailability of C[C@]1(O)C[C@](c2cc(C(F)(F)F)ccn2)([C@H](O)c2ccccn2)C1 (mixture of isomers)
# output 26

* * *

assay: Total plasma clearance in rat at 1 mg/kg, iv; type: ADME, organism-based
PARAMETER: clearance (mL/min/kg)
One number for each entry, in mL/min/kg.

- C[C@]1(c2ccc(OC(F)(F)F)cc2)C[C@](O)(c2ccccn2)CO1 (single isomer, unassigned): 10

Next:
# input # lookup: clearance of C[C@]1(O)C[C@](c2cc(C(F)(F)F)ccn2)([C@H](O)c2ccccn2)C1 (mixture of isomers)
# output 26.7

* * *

test system: Liver microsome; experiment: Unbound intrinsic clearance in rat liver microsomes after 5 hrs by LC-MS/MS analysis; format: ADME
CL free strictly less than 1000 mL/min/kg = Fulfilled. Otherwise Not fulfilled.

* O[C@H](c1ccccn1)[C@]1(c2cccc(OC(F)(F)F)c2)C[C@@H](O)C1 | Fulfilled

# input Just wondering, is CL free of C[C@]1(O)C[C@](c2cc(C(F)(F)F)ccn2)([C@H](O)c2ccccn2)C1 (mixture of isomers) below 1000 mL/min/kg?
# output Fulfilled

# input Just wondering, is CL free of O[C@H](c1ccccn1)[C@]1(c2cccc(C(F)(F)F)c2)C[C@@H](O)C1 below 1000 mL/min/kg?
# output Fulfilled

# input Just wondering, is CL free of OC(c1ncccc1F)C1(c2ccc(Cl)c(Cl)c2)CCC1 (racemic) below 1000 mL/min/kg?
# output Not fulfilled

* * *

assay: Cmax in rat at 1 mg/kg, iv or 1 mg/kg, po; format: ADME, organism-based; settings: in vivo
PARAMETER: Cmax (ng/mL)
Numbers only, in ng/mL.

# input # lookup: Cmax of C[C@]1(c2ccc(OC(F)(F)F)cc2)C[C@](O)(c2ccccn2)CO1 (single isomer, unassigned)
# output 130
